System: TK-10 renal
test: NCI tumour cell line growth inhibition, 48 h
parameterMeasured: TGI

- CO/N=C/c1c(-c2ccc(Cl)cc2)c(/C=N/OC)n2c1sc1ccccc12: > 100 µM
- N#CC(C#N)=Cc1ccc(-c2ccc(-c3nc4ccccc4s3)cc2)s1: 47.4 µM
- Clc1ccc(-c2cc(-c3nc4ccccc4[nH]3)no2)cc1: 40 µM
- O=C1/C(=C/c2ccc(O)cc2)CCc2ccccc21: > 95.9 µM

----------
Catalogue of TGI values
Test system: RXF 393 renal
test: NCI tumour cell line growth inhibition, 48 h
parameterMeasured: TGI (µM)

* O=C(O)c1cn(C2CC2)c2cc(N3CCN(C(=O)Nc4nc(-c5ccc(Cl)cc5)cs4)CC3)c(F)cc2c1=O | 54.6
* CCOC(=O)c1c2c(n3cccc(F)c13)C(=O)c1ncccc1C2=O | 4.1
* CCCNNC(=O)c1ccc(CNC(=O)/C=C/c2ccccc2)cc1 | 0.501
* CC1=C/C(=C(/c2ccc(O)c(C)c2)c2ccccc2C(=O)O)C=CC1=O | 33.8
* COc1ccc(-c2oncc2-c2cc(OC)c3c(c2)OCO3)cc1 | 20.3
* Cc1cccc2c(=O)c3c(sc12)c(NCCN)nc1ccccc13 | 2.75
